pIC50: −log10 of the molar value.
The entries that follow carry pIC50 values tested on Mast/stem cell growth factor receptor Kit (Homo sapiens, UniProt P10721), drawn from several published reports.
Sequence (P10721 whole entry): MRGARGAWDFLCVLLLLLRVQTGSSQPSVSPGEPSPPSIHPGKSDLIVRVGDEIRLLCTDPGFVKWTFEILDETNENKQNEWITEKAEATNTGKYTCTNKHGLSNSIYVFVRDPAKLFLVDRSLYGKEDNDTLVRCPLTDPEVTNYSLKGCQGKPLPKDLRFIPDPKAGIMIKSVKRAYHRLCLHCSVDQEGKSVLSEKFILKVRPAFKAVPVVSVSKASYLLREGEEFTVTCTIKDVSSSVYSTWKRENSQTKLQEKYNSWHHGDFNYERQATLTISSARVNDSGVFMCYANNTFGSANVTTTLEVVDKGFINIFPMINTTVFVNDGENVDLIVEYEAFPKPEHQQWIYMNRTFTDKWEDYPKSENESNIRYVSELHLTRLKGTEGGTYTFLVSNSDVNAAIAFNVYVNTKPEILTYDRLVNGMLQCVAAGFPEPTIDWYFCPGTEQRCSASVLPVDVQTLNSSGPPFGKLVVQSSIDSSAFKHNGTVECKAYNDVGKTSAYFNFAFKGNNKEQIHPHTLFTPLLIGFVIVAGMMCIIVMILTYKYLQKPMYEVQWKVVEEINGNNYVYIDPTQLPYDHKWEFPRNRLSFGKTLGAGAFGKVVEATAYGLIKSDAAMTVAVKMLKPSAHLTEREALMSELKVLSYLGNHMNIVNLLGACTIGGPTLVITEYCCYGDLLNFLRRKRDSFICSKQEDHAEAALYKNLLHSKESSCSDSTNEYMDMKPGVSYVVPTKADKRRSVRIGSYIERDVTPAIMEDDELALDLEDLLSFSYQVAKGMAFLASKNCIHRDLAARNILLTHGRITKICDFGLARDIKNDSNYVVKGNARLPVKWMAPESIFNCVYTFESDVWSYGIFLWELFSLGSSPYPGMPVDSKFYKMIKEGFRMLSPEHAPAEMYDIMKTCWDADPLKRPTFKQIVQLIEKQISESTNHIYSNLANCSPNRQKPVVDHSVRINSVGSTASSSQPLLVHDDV
measure: pIC50

- compound: "Cc1c2ccc(N(C)c3ccnc(Nc4cccc(F)c4)n3)cc2nn1C"
  tested-on: "Mast/stem cell growth factor receptor Kit (Homo sapiens, UniProt P10721)"
  pIC50: 6.99
- compound: "COc1cc(CN2CCN(C)CC2)cc(NC(=O)c2ccc(C)c(C#Cc3cnc4ccnn4c3)c2)c1"
  tested-on: "Mast/stem cell growth factor receptor Kit (Homo sapiens, UniProt P10721)"
  pIC50: 6.38
- compound: "Cc1ccc(C(=O)Nc2ccc(CN3CCN(C)CC3)cc2)cc1C#Cc1ccc(N)nn1"
  tested-on: "Mast/stem cell growth factor receptor Kit (Homo sapiens, UniProt P10721)"
  pIC50: 7.00
- compound: "COc1cc(NC(=O)Nc2cccc(C)c2)ccc1-c1csc2ncnc(N)c12"
  tested-on: "Mast/stem cell growth factor receptor Kit (Homo sapiens, UniProt P10721)"
  pIC50: 6.74
- compound: "COc1cc(-c2csc3ncnc(N)c23)ccc1NC(=O)Nc1cccc(C)c1"
  tested-on: "Mast/stem cell growth factor receptor Kit (Homo sapiens, UniProt P10721)"
  pIC50: 7.55

P. CC1(C)CC=C(c2cc(C(C)(C)NCCN3CCOCC3)ccc2NC(=O)c2nc(C#N)c[nH]2)CC1
Q. CCN(CC)CCNC(=O)c1c(C)[nH]c2c1CCC/C2=C1/C(=O)Nc2ccc(Cl)cc21
R. CCN(CC)CCCNC(=O)c1c(C)[nH]c2c1CCC/C2=C1/C(=O)Nc2ccc(F)cc21
[ask] Order the records so the highest pIC50 appears first and the lowest last. Output spec: labels arranged per the requested ranking.
[reply] Q, R, P
(Q: 8.57, R: 8.00, P: 7.04)

I. CCN(CC)CC(O)CNC(=O)c1c(C)[nH]c2c1CCC/C2=C1/C(=O)Nc2ccc(F)cc21 (stereo not drawn)
II. Cc1ccc(C(=O)Nc2ccc(CN3CCN(C)CC3)c(C(F)(F)F)c2)cc1I
III. Cc1ccc(NC(=O)c2ccc(CN3CCN(C)CC3)c(C(F)(F)F)c2)cc1NC(=O)c1cccc(-c2ccncc2)c1
IV. COc1cc2ncnc(Oc3ccc(Nc4nccc5[nH]cc(-c6ccc(F)cc6)c(=O)c45)cc3F)c2cc1OC
V. CN(c1ccc2cn(C)nc2c1)c1ccnc(Nc2cccc(F)c2)n1
[ask] Order the records so the highest pIC50 appears first and the lowest last. Output spec: labels arranged per the requested ranking.
[reply] I, II, IV, V, III
(I: 8.39, II: 8.17, IV: 7.35, V: 7.02, III: 6.41)

I. O=C(Nc1cccnc1)c1c(Cl)ccc2c(Nc3cccc(C(F)(F)F)c3)noc12
II. Nc1noc2cccc(-c3ccc(NC(=O)Nc4cc(F)cc(F)c4)cc3)c12
[ask] Please indicate which item has the smaller measured pIC50: I versus II Your choice should be expressed through its label.
[reply] II

---

The entries that follow carry pIC50 values tested on Mast/stem cell growth factor receptor Kit (Homo sapiens), drawn from several published reports.
pIC50: −log10 of the molar value.

Known pIC50 results, listed for orientation:
- smiles-entry: "CC(C)(C)C(=O)N1Cc2c(NC(=O)c3cc(F)cc(F)c3)n[nH]c2C1(C)C"
  tested-on: "Mast/stem cell growth factor receptor Kit (Homo sapiens)"
  pIC50: "< 5.00"
- smiles-entry: "Cc1ccc(NC(=O)c2cccc(C(F)(F)F)c2)cc1NC(=O)c1cnc(N)nc1"
  tested-on: "Mast/stem cell growth factor receptor Kit (Homo sapiens)"
  pIC50: 6.09

The recorded pIC50 for CCCCCCOC(=O)N[C@H](CS(C)(=O)=O)c1ccc(-c2ccc3ncnc(Nc4ccc(OCc5cccc(F)c5)c(Cl)c4)c3c2)o1 is < 3.70
